target: Adenosine receptor A1 (Rattus norvegicus)
Sequence (P25099 whole entry): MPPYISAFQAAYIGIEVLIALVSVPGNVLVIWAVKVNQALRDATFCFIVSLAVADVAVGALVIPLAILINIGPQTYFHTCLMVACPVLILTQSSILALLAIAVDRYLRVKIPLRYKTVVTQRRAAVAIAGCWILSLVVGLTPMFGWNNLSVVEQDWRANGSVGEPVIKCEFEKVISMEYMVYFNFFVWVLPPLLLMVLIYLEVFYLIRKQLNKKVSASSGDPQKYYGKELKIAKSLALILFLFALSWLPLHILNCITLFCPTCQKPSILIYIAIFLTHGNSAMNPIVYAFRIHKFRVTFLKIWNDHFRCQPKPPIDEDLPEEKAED
assay method text: Binding affinity for adenosine A1 receptor from rat cortical membrane using [3H]DPCPX without GTP
measure name: Ki (nM)
Write it as a number; the unit nM goes unstated.

Form field - read-out: Ki; system: Adenosine receptor A1 (Rattus norvegicus); submitted item: CNc1nc2c(NC3CCCC3)ncnc2n1[C@@H]1O[C@H](CO)[C@@H](O)[C@H]1O
260

---

target: Adenosine receptor A1 (Rattus norvegicus) (UniProt P25099)
assay method text: Relative affinities for rat Adenosine A1 receptor in the presence and absence of GTP
Simple rule here: GTP shift less than 3 is TRUE, otherwise FALSE.

Would you kindly verify if GTP shift of CCNc1ncnc2c1nc(NC1CCCC1)n2[C@@H]1O[C@H](CO)[C@@H](O)[C@H]1O is strictly less than 3?
FALSE

Does the reported GTP shift of the following compound sit strictly below 3? CCCCNc1ncnc2c1nc(NC1CCCC1)n2[C@@H]1O[C@H](CO)[C@@H](O)[C@H]1O
TRUE

Does CCCCNc1nc2c(N)ncnc2n1[C@@H]1O[C@H](CO)[C@@H](O)[C@H]1O have GTP shift strictly under 3?
FALSE

# TODO verify GTP shift < 3 strictly for this compound: CCCNc1nc2c(N)ncnc2n1C1O[C@H](CO)[C@@H](O)[C@H]1O (some centres undefined)
FALSE

I wonder whether CCCNc1ncnc2c1nc(NC1CCCC1)n2C1O[C@H](CO)[C@@H](O)[C@H]1O (some centres undefined) has GTP shift below 3. Can you tell?
TRUE

Lab note: GTP shift threshold 3. Does this compound come in strictly under it? CCCCNc1nc2c(NC3CCCC3)ncnc2n1C1O[C@H](CO)[C@@H](O)[C@H]1O (some centres undefined)
TRUE

Is GTP shift of CCNc1nc2c(NC3CCCC3)ncnc2n1[C@@H]1O[C@H](CO)[C@@H](O)[C@H]1O strictly below 3?
TRUE

Lab note: confirm whether the reported GTP shift for this compound is below 3, equality not counting. compound: CNc1nc2c(NC3CCCC3)ncnc2n1[C@@H]1O[C@H](CO)[C@@H](O)[C@H]1O
FALSE

Hello, is GTP shift of the following compound strictly smaller than 3? CCNc1nc2c(N)ncnc2n1C1O[C@H](CO)[C@@H](O)[C@H]1O (some centres undefined)
FALSE

---

target: Adenosine A2 receptor (Rattus norvegicus, UniProt P29276+P30543)
assay method text: Displacement of [3H]-CGS- 21680 from Adenosine A2 receptor of rat striatal membranes
Assay type: cell membranes, Membrane
Task for the reader: assign each of the following compounds its reported log10 of Ki.
Short version: log10 scale, Ki, µM.

Can you share its log10 of Ki? I mean this compound: CNc1nc2c(N)ncnc2n1[C@@H]1O[C@H](CO)[C@@H](O)[C@H]1O
0.27

Suppose we examine the compound CCCNc1nc2c(NC3CCCC3)ncnc2n1[C@@H]1O[C@H](CO)[C@@H](O)[C@H]1O ; what log10 of Ki value has been reported?
0.88

Return reported log10 of Ki; argument: OC[C@H]1O[C@@H](n2cnc3c(NC4CCCC4)ncnc32)[C@H](O)[C@@H]1O
-0.24

Tell me the measured log10 of Ki of CCCCNc1ncnc2c1nc(NC1CCCC1)n2[C@@H]1O[C@H](CO)[C@@H](O)[C@H]1O , please.
1.55

Please give the measured log10 of Ki for this compound: CNc1nc2c(NC3CCCC3)ncnc2n1[C@@H]1O[C@H](CO)[C@@H](O)[C@H]1O
1.32

So what does the record say about log10 of Ki for CCNc1nc2c(NC3CCCC3)ncnc2n1[C@@H]1O[C@H](CO)[C@@H](O)[C@H]1O ?
1.00

Find the recorded log10 of Ki belonging to CCCNc1nc2c(N)ncnc2n1C1O[C@H](CO)[C@@H](O)[C@H]1O (some centres undefined) and report it.
0.70

# input compound: CCCCNc1nc2c(N)ncnc2n1[C@@H]1O[C@H](CO)[C@@H](O)[C@H]1O ; wanted: its log10 of Ki
1.06

What value of log10 of Ki has been reported for the following compound? OC[C@H]1O[C@@H](n2c(NC3CCCC3)nc3c(NC4CCCC4)ncnc32)[C@H](O)[C@@H]1O
1.66

Which measured log10 of Ki value corresponds to CNc1ncnc2c1nc(NC1CCCC1)n2[C@@H]1O[C@H](CO)[C@@H](O)[C@H]1O ?
2.00

State the recorded log10 of Ki for this entry: CCCNc1ncnc2c1nc(NC1CCCC1)n2C1O[C@H](CO)[C@@H](O)[C@H]1O (some centres undefined)
1.77

Find the recorded log10 of Ki belonging to CCNc1nc2c(N)ncnc2n1C1O[C@H](CO)[C@@H](O)[C@H]1O (some centres undefined) and report it.
0.60

Could you share which log10 of Ki value was measured for CCCCNc1nc2c(NC3CCCC3)ncnc2n1C1O[C@H](CO)[C@@H](O)[C@H]1O (some centres undefined) ?
1.09

Find the recorded log10 of Ki belonging to CCNc1ncnc2c1nc(NC1CCCC1)n2[C@@H]1O[C@H](CO)[C@@H](O)[C@H]1O and report it.
1.48

The values you see were collected from ChEMBL document CHEMBL1129060.
